This section presents binders with their documented % Binding retained on T-cells, 60° C. values.
- test target: T1, CD3 on primary human pan T cells (human, UniProt P07766 23-207)
- T1 construct: on cells it stands in the TCR/CD3 complex; also called Pan T-cells (CD3-positive); endogenous CD3
- T1 sequence (P07766 23-207 limits assumed): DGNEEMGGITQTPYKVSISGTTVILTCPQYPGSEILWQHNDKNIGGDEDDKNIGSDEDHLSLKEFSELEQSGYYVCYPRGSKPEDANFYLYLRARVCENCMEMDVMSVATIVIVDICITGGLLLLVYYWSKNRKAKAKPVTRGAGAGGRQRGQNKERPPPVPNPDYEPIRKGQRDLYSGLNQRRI
- assay remarks: flow cytometry, pan T-cells

>  <binder>
CD3B2037 (scFv) scFv: QVQLVQSGAEVKKPGSSVKVSCKASGYTFTRSTMHWVKQAPGQGLEWMGYINPSSAYTNYAQKFQGRVTLTADKSTSTAYMELSSLRSEDTAVYYCASPQVHYDYNGFPYWGQGTLVTVSSGGSEGKSSGSGSESKSTGGSEIVLTQSPATLSASPGERVTLSCSASSSVSYMNWYQQKPGTSPRRLIYDSSKLASGVPARFSGSGSGRDYTLTISSLEPEDFAVYYCQQWSRNPPTFGGGTKVEIK

>  <% Binding retained on T-cells, 60° C. (fraction)>
0.986

$$$$
>  <binder>
CD3B2079 (scFv) scFv: QVQLVQSGAEVKKPGSSVKVSCKASGYTFTRSTMHWVRQAPGQGLEWIGYINPSSAYTNYAQKFQGRVTLTADKSTSTAYMELSSLRSEDTAVYYCASPQVHYDYNGFPYWGQGTLVTVSSGGSEGKSSGSGSESKSTGGSEIVLTQSPATLSASPGERVTLSCSASSSVSYMNWYQQKPGTAPRRLIYDSSKLASGVPARFSGSGSGRDYTLTISSLEPEDFAVYYCQQWSRNPPTFGGGTKVEIK

>  <% Binding retained on T-cells, 60° C. (fraction)>
0.979

$$$$
>  <binder>
CD3B2086 (scFv) scFv: QVQLVQSGAEVKKPGSSVKVSCKASGYTFTRSTMHWVRQAPGQGLEWMGYINPSSAYTNYAQKFQGRVTLTADKSTSTAYMELSSLRSEDTAVYYCASPQVHYDYNGFPYWGQGTLVTVSSGGSEGKSSGSGSESKSTGGSEIVLTQSPATLSASPGERVTLSCSASSSVSYMNWYQQKPGTSPRRLIYDSSKLASGVPARFSGSGSGRDYTLTISSLEPEDFAVYYCQQWSRNPPTFGGGTKVEIK

>  <% Binding retained on T-cells, 60° C. (fraction)>
1.12

$$$$
